experiment: Cytotoxicity against human HeLa cells; format: cell-based
measured-property: CC50 (µg/mL)
Could you give me the number in µg/mL? Just the number is fine.

>>> print(df.to_string())
                  smiles_representation  quantitative_readout
0  Nc1ncc(C(=O)CCNC(=O)c2ccc[nH]2)[nH]1                   101

From here, focus on the item given below.
Request the reported CC50 associated with Nc1ncc(C(=O)CCNC(=O)c2cc(Br)c[nH]2)[nH]1
86.4

###

test system: Staphylococcus epidermidis; experiment: Antibacterial activity against Staphylococcus epidermidis 1457 assessed as planktonic growth at 50 ug/ml; assay type: organism-based
measured-property: Activity (%)
Please reply with the bare figure in % and do not write the unit itself.

In the examples that follow, each entry is paired with its recorded Activity.
>>> df
                                   compound  measured_property  value_unit  quantitative_readout
0  O=C(NCCC(=O)c1cnc2ncccn12)c1cc(Br)c(Br)[nH]1           Activity           %                  9.93
1  O=C(NCC(O)c1cnc2ncccn12)c1cc(Br)c(Br)[nH]1 (stereo unspecified)           Activity           %                  9.93
2  Nc1ncc(C(=O)CCNC(=O)c2cc(Br)c[nH]2)[nH]1           Activity           %                 85.98
3    O=C(CN1C(=O)c2ccccc2C1=O)c1cnc2ncccn12           Activity           %                  11.1
4  O=C(NC/C=C/c1cnc2ncccn12)c1cc(Br)c(Br)[nH]1           Activity           %                   7.8
5  O=C(NCC(O)c1cnc2ncccn12)c1ccc[nH]1 (stereo unspecified)           Activity           %                 -3.27

Form entry - test system: Staphylococcus epidermidis; read-out: Activity; compound: O=C(NCC(=O)c1cnc2ncccn12)c1cc(Br)c(Br)[nH]1
13.8

What do you have for O=C(NCCC(=O)c1cnc2ncccn12)c1ccc[nH]1 ?
-3.27

Try O=C(NCCC(O)c1cnc2ncccn12)c1cc(Br)c[nH]1 (stereo unspecified) next.
2.9

Follow-up item: O=C(NCCC(O)c1cnc2ncccn12)c1cc(Br)c(Br)[nH]1 (stereo unspecified)
10.2

Let us now turn to O=C(NCC(=O)c1cnc2ncccn12)c1cc(Br)c[nH]1
13.47

###

Measured Activity values are reported for all entries that follow.
test system: Staphylococcus aureus; test: Antibacterial activity against Staphylococcus aureus ATCC 35556 assessed as planktonic growth at 50 ug/ml; format: organism-based
State just the number; it will be interpreted in %.

                                   compound  quantitative_readout
0  Nc1ncc(C(=O)CCNC(=O)c2cc(Br)c[nH]2)[nH]1                 81.24
1               Cl.Cl.NCCC(=O)c1cnc2ncccn12                  -3.3
2                Cl.Cl.NCC(=O)c1cnc2ncccn12                   6.2
3  O=C(NCC(O)c1cnc2ncccn12)c1ccc[nH]1 (configuration not stated)                  6.67
4  O=C(NCCC(O)c1cnc2ncccn12)c1cc(Br)c(Br)[nH]1 (configuration not stated)                   2.9
5  O=C(NC/C=C/c1cnc2ncccn12)c1cc(Br)c(Br)[nH]1                   3.3

Which Activity value belongs to O=C(NC/C=C/c1cnc2ncccn12)c1ccc[nH]1 ?
-11.5
